- TESTED_SYSTEM: PIK3CD (Human) (UniProt O00329)
- Sequence (O00329 whole entry, looked up): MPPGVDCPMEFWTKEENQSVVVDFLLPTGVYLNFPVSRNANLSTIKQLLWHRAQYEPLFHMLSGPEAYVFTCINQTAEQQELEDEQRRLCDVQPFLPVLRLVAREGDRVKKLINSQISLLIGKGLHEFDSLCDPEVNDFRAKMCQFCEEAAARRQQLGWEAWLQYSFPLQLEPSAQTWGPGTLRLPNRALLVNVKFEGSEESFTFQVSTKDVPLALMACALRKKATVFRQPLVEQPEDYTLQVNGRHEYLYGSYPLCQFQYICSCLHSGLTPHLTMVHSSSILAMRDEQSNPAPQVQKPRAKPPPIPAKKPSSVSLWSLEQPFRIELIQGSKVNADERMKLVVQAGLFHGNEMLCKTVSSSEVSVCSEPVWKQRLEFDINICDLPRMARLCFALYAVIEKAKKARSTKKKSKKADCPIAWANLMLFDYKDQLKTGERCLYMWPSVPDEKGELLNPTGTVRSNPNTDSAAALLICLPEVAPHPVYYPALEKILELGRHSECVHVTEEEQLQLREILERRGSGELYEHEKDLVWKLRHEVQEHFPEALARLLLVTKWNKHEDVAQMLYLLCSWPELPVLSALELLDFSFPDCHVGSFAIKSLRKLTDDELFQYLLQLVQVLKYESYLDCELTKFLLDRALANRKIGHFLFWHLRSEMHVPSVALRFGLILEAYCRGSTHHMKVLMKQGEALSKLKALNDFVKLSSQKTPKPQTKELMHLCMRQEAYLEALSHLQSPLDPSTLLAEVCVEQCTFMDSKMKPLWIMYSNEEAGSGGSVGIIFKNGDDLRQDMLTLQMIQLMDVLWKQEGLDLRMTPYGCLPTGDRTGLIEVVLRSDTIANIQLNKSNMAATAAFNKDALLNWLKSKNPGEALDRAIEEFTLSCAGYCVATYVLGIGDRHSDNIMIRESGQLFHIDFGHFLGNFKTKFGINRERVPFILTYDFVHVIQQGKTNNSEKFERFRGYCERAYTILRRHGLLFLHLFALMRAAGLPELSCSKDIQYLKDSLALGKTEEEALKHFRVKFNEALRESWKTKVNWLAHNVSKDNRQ
- TEST_METHOD_NOTES: Cell-Based Assay
- EXPERIMENTAL_CONTEXT: raji
pIC50: −log10 of the molar value.
# pIC50 values compiled below

# lookup: C[C@H](NC(=O)c1c(N)nn2cccnc12)c1cc2cccc(C#CC3CCOC3)c2c(=O)n1-c1ccccc1 (some centres undefined) on PIK3CD (Human) (UniProt O00329), pIC50 = 6.30 to 7.00

Known value: PIK3CD (Human) (UniProt O00329) pIC50 of the molecule Cc1ncc(C#Cc2cccc3cc([C@H](C)NC(=O)c4c(N)nn5cccnc45)n(-c4ccccc4)c(=O)c23)n1C equals 6.00 to 6.30

The molecule C[C@H](NC(=O)c1c(N)nn2cccnc12)c1cc2cccc(C#Cc3ccccc3)c2c(=O)n1-c1ccccc1 , when measured on PIK3CD (Human) (UniProt O00329), yielded pIC50 of 7.00 to 9.00

// switching to the query molecule
Lab note: molecule Cc1nc(C#Cc2cccc3cc([C@H](C)NC(=O)c4c(N)nn5cccnc45)n(-c4ccccc4)c(=O)c23)cs1 tested on PIK3CD (Human) (UniProt O00329); recorded pIC50 was 6.30 to 7.00

* * *

Here the recorded IC50 is given for each entry.
- TESTED_SYSTEM: PIK3CD (Human) (UniProt O00329)
- TEST_METHOD_NOTES: Enzyme Assay

Past entries and their recorded results:
Notebook: COCC#Cc1cccc2cc([C@H](C)NC(=O)c3c(N)nn4cccnc34)n(-c3ccccc3)c(=O)c12 , IC50 read as 1 to 5 µM

get_value(item= C[C@H](NC(=O)c1c(N)nn2cccnc12)c1cc2cccc(C#CC3CCOC3)c2c(=O)n1-c1ccccc1 (stereo partly drawn) , readout=IC50) returns 5 to 10 µM

Documented IC50 of C[C@H](NC(=O)c1c(N)nn2cccnc12)c1cc2ccc3ccccc3c2c(=O)n1-c1ccccc1 : 5 to 10 µM

Form field IC50, entry Cc1cccc(-n2c([C@H](C)NC(=O)c3c(N)nn4cccnc34)cc3cccc(C#Cc4cnn(C)c4)c3c2=O)c1 : 5 to 10 µM

// recorded IC50 for C[C@H](NC(=O)c1c(N)nn2cccnc12)c1cc2cccc(C#CC3CCN(C)CC3)c2c(=O)n1-c1ccccc1 : 5 to 10 µM

Continuing:
Given item C[C@H](NC(=O)c1c(N)nn2cccnc12)c1cc2cccc(C#Cc3nccs3)c2c(=O)n1-c1ccccc1 , the value recorded as its IC50 is 5 to 10 µM

Lab book: IC50 of C[C@H](NC(=O)c1c(N)nn2cccnc12)c1cc2cccc(C#Cc3cscn3)c2c(=O)n1-c1ccccc1 noted as 1 to 5 µM

Noted for Cc1c(C#Cc2cccc3cc([C@H](C)NC(=O)c4c(N)nn5cccnc45)n(-c4ccccc4)c(=O)c23)cnn1C : its IC50 reads 5 to 10 µM

* * *

- TESTED_SYSTEM: PIK3CD (Human) (UniProt O00329)
- TEST_METHOD_NOTES: Enzyme Assay
ENDPOINT_NAME: IC50

C[C@H](NC(=O)c1c(N)nn2cccnc12)c1cc2cccc(C#CC3CCOCC3)c2c(=O)n1-c1ccccc1 yielded IC50 of 5 to 10 µM

Reported IC50 ( CC(=O)N1CCC(C#Cc2cccc3cc([C@H](C)NC(=O)c4c(N)nn5cccnc45)n(-c4ccccc4)c(=O)c23)CC1 ) = 5 to 10 µM

For record Cc1nc(C)c(C#Cc2cccc3cc([C@H](C)NC(=O)c4c(N)nn5cccnc45)n(-c4ccccc4)c(=O)c23)s1 the listed IC50 is 5 to 10 µM

* * *

- TESTED_SYSTEM: PIK3CD (Human) (UniProt O00329)
- TEST_METHOD_NOTES: Enzyme Assay
pIC50: −log10 of the molar value.
ENDPOINT_NAME: pIC50

Field pIC50 (entry C[C@H](NC(=O)c1c(N)nn2cccnc12)c1cc2cccc(C#Cc3ccc(=O)n(C)c3)c2c(=O)n1-c1ccccc1 ) reads 5.30 to 6.00

Measured pIC50, CC[C@H](NC(=O)c1c(N)nn2cccnc12)c1cc2cccc(C#Cc3cnn(C)c3)c2c(=O)n1-c1ccccc1 : 5.00 to 5.30

Per the record, CNS(=O)(=O)CCn1c([C@H](C)NC(=O)c2c(N)nn3cccnc23)cc2cccc(C#Cc3cnn(C)c3)c2c1=O has pIC50 of 5.00 to 5.30

New cases:
Input COC(C)C#Cc1cccc2cc([C@H](C)NC(=O)c3c(N)nn4cccnc34)n(-c3ccccc3)c(=O)c12 (some centres undefined) . Output pIC50: 5.00 to 5.30

* * *

- TESTED_SYSTEM: PIK3CD (Human) (UniProt O00329)
- TEST_METHOD_NOTES: Cell-Based Assay
- EXPERIMENTAL_CONTEXT: raji
Each entry below carries its recorded IC50.

Answered cases to consult:
Entry C[C@H](NC(=O)c1c(N)nn2cccnc12)c1cc2cccc(C#CCN(C)C)c2c(=O)n1-c1ccccc1 ; IC50 = 100 to 500 nM

According to the records, this compound Cc1ccc(C#Cc2cccc3cc([C@H](C)NC(=O)c4c(N)nn5cccnc45)n(-c4ccccc4)c(=O)c23)cn1 displays IC50 of 500 to 1000 nM

Notebook: C#Cc1cccc2nc([C@H](C)NC(=O)c3c(N)nn4cccnc34)n(C)c(=O)c12 , IC50 read as 1 to 100 nM

Entry C[C@H](NC(=O)c1c(N)nn2cccnc12)c1cc2cccc(C#CCO)c2c(=O)n1-c1ccccc1 — recorded IC50 = 1 to 100 nM

The compound C[C@H](NC(=O)c1c(N)nn2cccnc12)c1cc2cccc(C#CC3CC3)c2c(=O)n1-c1ccccc1 showed IC50 equal to 100 to 500 nM

IC50 recorded for this compound, COc1ncc(C#Cc2cccc3cc([C@H](C)NC(=O)c4c(N)nn5cccnc45)n(-c4ccccc4)c(=O)c23)cn1 , is 100 to 500 nM

# IC50 (compound: C[C@H](NC(=O)c1c(N)nn2cccnc12)c1cc2cccc(C#CC3CCOCC3)c2c(=O)n1-c1ccccc1 ) is 1 to 100 nM

Entry Cc1scnc1C#Cc1cccc2cc([C@H](C)NC(=O)c3c(N)nn4cccnc34)n(-c3ccccc3)c(=O)c12 ; IC50 = 100 to 500 nM

Others:
Memo: C#Cc1cccc2nc([C@H](C)NC(=O)c3nccnc3N)n(-c3ccc(F)cc3)c(=O)c12 , reported IC50: 1 to 100 nM

// field: IC50; key: C[C@H](NC(=O)c1c(N)nn2cccnc12)c1cc2cccc(C#Cc3cccnc3)c2c(=O)n1-c1ccccc1 ; value = 100 to 500 nM

Sure, the documented IC50 for C[C@H](NC(=O)c1c(N)nn2cccnc12)c1cc2cccc(C#Cc3ccncc3)c2c(=O)n1-c1ccccc1 is 100 to 500 nM

COc1cnc(C(=O)N[C@@H](C)c2cc3cccc(C#Cc4cnn(C)c4)c3c(=O)n2-c2ccccc2)c(N)n1 has a reported IC50 of 1000 to 10000 nM

# IC50 of C[C@H](NC(=O)c1c(N)nn2cccnc12)c1cc2cccc(CC(=O)c3cnn(C)c3)c2c(=O)n1-c1ccccc1 = 100 to 500 nM

Reported IC50 for Cc1ccncc1C#Cc1cccc2cc([C@H](C)NC(=O)c3c(N)nn4cccnc34)n(-c3ccccc3)c(=O)c12 was 1000 to 10000 nM

* * *

- TESTED_SYSTEM: PIK3CD (Human) (UniProt O00329)
- TEST_METHOD_NOTES: Cell-Based Assay
- EXPERIMENTAL_CONTEXT: raji
ENDPOINT_NAME: IC50

Worked cases, IC50 given:
Entry Cc1ncccc1C#Cc1cccc2cc([C@H](C)NC(=O)c3c(N)nn4cccnc34)n(-c3ccccc3)c(=O)c12 , IC50 reported as 1000 to 10000 nM

The value of IC50 measured for the compound C[C@H](NC(=O)c1c(N)nn2cccnc12)c1cc2cccc(C#Cc3cc[nH]c(=O)c3)c2c(=O)n1-c1ccccc1 turned out to be 100 to 500 nM

Reported IC50 for C[C@H](NC(=O)c1c(N)nn2cccnc12)c1cc2cccc(NC(=O)c3cnn(C)c3)c2c(=O)n1-c1ccccc1 was 1000 to 10000 nM

The compound Cc1cnc(C(=O)N[C@@H](C)c2cc3cccc(C#Cc4cnn(C)c4)c3c(=O)n2-c2ccccc2)c(N)n1 showed IC50 equal to 1000 to 10000 nM

Note to self: IC50 recorded for C[C@H](NC(=O)c1c(N)nn2cccnc12)c1cc2cccc(C#Cc3ccn(C)n3)c2c(=O)n1-c1ccccc1 was 100 to 500 nM

IC50 in this record for C[C@H](NC(=O)c1c(N)nn2cccnc12)c1cc2cccc(C#CC3CCN(S(C)(=O)=O)CC3)c2c(=O)n1-c1ccccc1 : 500 to 1000 nM

Others:
Entry C[C@H](NC(=O)c1c(N)nn2cccnc12)c1cc2cccc(C#Cc3ccccn3)c2c(=O)n1-c1ccccc1 ; IC50 = 500 to 1000 nM

Query CC(C)C#Cc1cccc2nc([C@H](C)NC(=O)c3c(N)nn4cccnc34)n(-c3ccccc3)c(=O)c12 yields IC50 of 500 to 1000 nM

The origin of these recorded values is the Kinase Knowledgebase extract (Sharma et al. 2016).
